test system: Human papillomavirus type 1a E7 protein (residues 1-88); assay: HPV1a E7 small-molecule binders, primary screen, biochemical, small-molecule microarray, residues 1-88, 635 nm (AID 1129); details: small-molecule microarray binding, fluorescence 635 nm; higher = more signal
measurement_kind: composite z-score
Enter a number only.

# compound, composite z-score
rows = [
    ("CC(C)OC(=O)C=C1C[C@@H](c2ccccn2)O[C@@H](c2ccccn2)O1", -0.0007),
    ("C=CCOC(=O)[C@H]1[C@@H]2C(=O)O[C@@H](c3ccccc3)[C@@H](c3ccccc3)N2[C@@H](c2ccc(OCCOC(=O)[C@H]3C[C@H]4C(=O)N[C@@H](CCCC[N+](C)(C)C)C(=O)N4[C@H]3c3ccc(O)cc3)cc2)[C@]12C(=O)Nc1ccc(I)cc12", 1.08),
    ("CCOC(=O)C[C@H]1[C@H](OC(=O)c2ccccc2-c2ccccc2)[C@@H](NC(=O)CC(C)C)c2cc(OCCCO)ccc2N1C(=O)Cc1ccc(OC)cc1", 0.149),
    ("[N-]=[N+]=NCc1ccccc1C[C@]1(C(N)=O)COC(c2ccc(OCCCO)cc2)=N1", 0.3),
    ("CC(C)C(=C=CC[C@@H](O)c1ccc(OCCO)cc1)C[C@@H](O)c1ccccn1", -0.251),
    ("C=C(CC1([C@@H](NP(=O)(c2ccccc2)c2ccccc2)[C@H]2C[C@@H]2CCCC)CC1)c1ccccc1", 1.19),
    ("C=C(/C(=C/C[C@H](OC(C)=O)c1ccccc1OCCO)c1cnc2ccccc2c1)C(C)C", 0.0336),
    ("O=C1C2C=CC(C(O)c3cccc4ccccc34)N(Nc3ccccc3F)C2C(=O)N1c1ccccc1 (stereo unspecified)", 1.25),
    ("O=C1[C@@]23C=C(Br)[C@H](C[C@@H]2CCOC3)[C@@]12CO2", 0.235),
    ("O=C(NCCO)C1=C[C@H](Oc2ccccc2I)[C@@H](O)[C@H](N(Cc2ccco2)C(=O)Cc2ccccc2)C1", 0.234),
]

Next, consider the following compound.
INPUT: Which measured composite z-score belongs to `C=C[C@H](OC)[C@@H](OC(=O)Nc1ccc(OC)cc1)c1ccc(O)c(F)c1` , tested on Human papillomavirus type 1a E7 protein (residues 1-88)?
OUTPUT: 0.424
